# System: Klebsiella oxytoca 1082E
# Protocol Description: In Vitro Anti-Bacterial Activity Test (MIC, agar dilution)
# Format: cell-based
# Recorded Conditions: Klebsiella oxytoca 1082E; Muller-Hinton agar, 37° C., 18 hours; read-out: MIC
Where a name gives a salt, the structure may show the parent alone.
Measured MIC, listed per entry.
Numbers only here, please. The scale is µg/mL.

Give Klebsiella oxytoca 1082E MIC for CS(=O)(=O)CC(=O)c1cn(C2CC2)c2c(Cl)c(N3CC4=C(CNC4)C3)c(F)cc2c1=O [Example 47, hydrochloride]
0.098

Entry to check: COc1c(N2CCC(N)C2)c(F)cc2c(=O)c(C(=O)C[N+](=O)[O-])cn(C3CC3)c12 (centres unmarked) [Example 49, hydrochloride]
0.013

Entry to check: N#CC(C#N)C(=O)c1cn(C2CC2)c2c(Cl)c(N3CCC(N)C3)c(F)cc2c1=O (centres unmarked) [Example 45, hydrochloride]
0.049

Note: attention shifts to another entry.
Give Klebsiella oxytoca 1082E MIC for CCOC(=O)C(C#N)C(=O)c1cn(C2CC2)c2c(Cl)c(N3CCC(N)C3)c(F)cc2c1=O (centres unmarked) [Example 39, hydrochloride]
0.049
